- assay_procedure: Concentration in Staphylococcus aureus infection-induced aortic valve endocarditis rabbit serum at 20 mg/kg, iv administered every 12 hrs measured 30 mins after seventh dose in presence of Dexamethasone
- Assay type: ADME, organism-based, Oryctolagus cuniculus
- Set-up: dose 20 mg/kg, route intravenous
- recorded_conditions: read-out: Drug uptake
measured_property: concentration at 0.5 h (ng/mL)
Numeric only. Scale: ng/mL

Quick note, concentration at 0.5 h for COc1c(N2C[C@@H]3CCCN[C@@H]3C2)c(F)cc2c(=O)c(C(=O)O)cn(C3CC3)c12 [MOXIFLOXACIN] landed at 3330

* * *

- assay_procedure: Concentration in Staphylococcus aureus infection-induced aortic valve endocarditis rabbit serum at 20 mg/kg, iv administered every 12 hrs measured 12hrs after seventh dose in presence of Dexamethasone
- Assay type: ADME, organism-based, Oryctolagus cuniculus
- Parameters: dose 20 mg/kg, route intravenous
- recorded_conditions: read-out: Drug uptake
measured_property: concentration at 12 h (ng/mL)
Numeric only. Scale: ng/mL

Quick note, concentration at 12 h for "COc1c(N2C[C@@H]3CCCN[C@@H]3C2)c(F)cc2c(=O)c(C(=O)O)cn(C3CC3)c12" landed at 1000

* * *

- assay_procedure: Concentration in Staphylococcus aureus infection-induced aortic valve endocarditis rabbit serum at 20 mg/kg, iv administered every 12 hrs measured 30 mins after third dose
- Type: ADME, organism-based, Oryctolagus cuniculus
- Parameters: dose 20 mg/kg, route intravenous
- recorded_conditions: read-out: Drug uptake
measured_property: concentration at 0.5 h (ng/mL)
Numeric only. Scale: ng/mL

Quick note, concentration at 0.5 h for "COc1c(N2C[C@@H]3CCCN[C@@H]3C2)c(F)cc2c(=O)c(C(=O)O)cn(C3CC3)c12" landed at 3730

* * *

- assay_procedure: AUC (0 to 12 hrs) in Staphylococcus aureus infection-induced aortic valve endocarditis rabbit at 20 mg/kg, iv administered every 12 hrs measured after seventh dose in presence of Dexamethasone
- Type: ADME, organism-based, Oryctolagus cuniculus
- Set-up: time < 12 hr, dose 20 mg/kg, route intravenous
- recorded_conditions: plasma
measured_property: AUC at 12 h (µg·h/mL)
Numeric only. Scale: µg·h/mL

Quick note, AUC at 12 h for "COc1c(N2C[C@@H]3CCCN[C@@H]3C2)c(F)cc2c(=O)c(C(=O)O)cn(C3CC3)c12" landed at 23.9

Sourced from ChEMBL document CHEMBL1155768
